- Test system: HT29 colon
- Experimental Details: NCI tumour cell line growth inhibition, 48 h
As shown below, each of these compounds has a reported TGI value.
Parameter Measured: TGI

• COc1cc(NCCCCCN=C(N)NC(N)=NC(C)C)c2ncccc2c1 = > 42.3 µM
• NC(=O)NN=C1Cc2ccccc2C1 = > 100 µM
• CN1C2=Nc3n(c4ccccc4[n+]3C)CN2c2ccccc21 = > 100 µM
• CC(=O)/C(=N\Nc1ccc(Cl)cc1)C(C)=Nc1ccc(C)cc1 = 61.3 µM
• C/C=C(\C)C(=O)OC1/C=C(\C)CC/C=C(\C)CC2OC(=O)C(C)(OC(C)=O)C12 (configuration not stated) = > 100 µM
• CN(C)CCCNC(=O)N/N=C/c1ccccc1 = > 100 µM
• CC1=C(C)SC(=C2Sc3c(n(C)c(=O)n(C)c3=O)S2)S1 = > 100 µM
• CCOC(=O)c1c(-c2ccccc2)c(OC)cn1C = > 10 µM
• C[CH2][Sn]([CH2]C)([O]C(=O)c1ccc(F)cc1)[O]C(=O)c1ccc(F)cc1 = > 100 µM
• N#Cc1c(-c2ccc([N+](=O)[O-])cc2)c(C#N)c(=O)n(NS(=O)(=O)c2ccccc2)c1O = > 100 µM
• COc1ccc2[nH]c(C(=O)OCc3ccc4c(Cl)cc(Cl)c(O)c4n3)cc2c1 = 2.32 µM
• CCCCN(CCCC)CC(C(C)=O)C(c1ccccc1)c1c(O)c2ccccc2oc1=O (configuration not stated) = > 100 µM
• CNC(=O)c1cncc(/C=C/c2ccccc2Cl)c1 = > 25 µM
• CS(=O)(=O)Nc1ccc2ccccc2c1 = > 100 µM
• O=c1/c(=N\Nc2ccccc2)c2cccc3ccc4cccc1c4c32 = > 100 µM
• CN1CCN(CCCOc2cc(O)c3c(=O)cc(-c4ccccc4)oc3c2)CC1 = 30.4 µM
• CCOC(=O)c1c(SCc2cc(=O)[nH]c(=O)[nH]2)n(-c2ccccc2)c(=S)n(-c2ccccc2)c1=O = > 100 µM
• COC(=O)CC[C@]12C[C@]13CC[C@]1(C)C4C(C)C[C@]5(CC(C)C(=O)O5)OC4CC1(C)C3CCC2C(C)(C)O (some centres not stated) = > 100 µM
• CN(C)CCNCCCNc1c2ccccc2nc2cccc([N+](=O)[O-])c12 = < 0.0277 µM
• C=C1C(OC(C)=O)CC(OC(C)=O)C2(C)C(OC(C)=O)C(OC(C)=O)C3=C(C)C(OC(=O)/C=C/c4ccccc4)CC(C(OC(C)=O)C12)C3(C)C (configuration not stated) = > 100 µM
• CCc1nc2c(c(N(C)C)c1C(=O)OC)CCc1ccccc1-2 = > 100 µM
• O=C1C=CC(=O)c2c(O)c(N3CCC[C@@H]3CO)c(Cl)c(O)c21 = 4.9 µM
• O=C(Nc1cccc(C(F)(F)F)c1)Oc1ccc(Cl)c2cccnc12 = 14.1 µM
• COC1(CC[C@H](C)COC2OC(CO)C(O)C(O)C2O)O[C@H]2C[C@H]3[C@@H]4CC=C5C[C@@H](OC6OC(CO)C(OC7OC(C)C(O)C(O)C7O)C(O)C6OC6OC(C)C(O)C(O)C6O)CC[C@]5(C)[C@H]4CC[C@]3(C)[C@H]2[C@@H]1C (some centres not stated) = 6.8 µM
• O=C1Nc2cc(F)ccc2C1=O = > 100 µM
• CCCCNC(=O)Cn1c2ccc(Br)cc2c2nc3ccccc3nc21 = > 100 µM
• CCOC(=O)c1csc(NC(=O)CCN2CCCC2)n1 = > 100 µM
• CCCn1cc2c3c(cccc31)C1C=C(C)CN(C)C1C2 (configuration not stated) = 42.7 µM
• Cc1cc(-c2cc(C(C)(C)C)c(O)c(C(C)(C)C)c2)c(C)cc1-c1cc(C(C)(C)C)c(O)c(C(C)(C)C)c1 = > 100 µM
• CCOC(=O)C1=C(C)NC(c2ccco2)=C(C#N)C1c1cccc([N+](=O)[O-])c1 (configuration not stated) = 0.562 µM
• O=c1c2cc3ccccc3n2c(=O)c2cc3ccccc3n12 = > 100 µM
• C/C(=C\CSCC(N)C(=O)O)CC/C=C(\C)CNc1ccccc1 (configuration not stated) = > 100 µM

* * *

- System: DU-145 prostate
- Experimental Details: NCI tumour cell line growth inhibition, 48 h
Parameter Measured: TGI

- NC(=O)c1ccc[n+](C2=C([O-])c3ccccc3C(=O)/C2=N\S(=O)(=O)c2ccccc2)c1: 34 µM
- O=C(NC(C(F)(F)F)(C(F)(F)F)P(=O)(Cc1ccccc1)Cc1ccccc1)C(C(F)(F)F)C(F)(F)F: > 100 µM
- O=C(/C=C/C12c3ccccc3C(c3ccccc31)C1C(=O)NC(=O)C12)c1ccccc1 (stereo not drawn): 3.51 µM
- CCOC(=O)CN1C(=O)c2cc([N+](=O)[O-])cc3cc([N+](=O)[O-])cc(c23)C1=O: > 100 µM
- CC(=O)Oc1ccn2nc(C)c(Br)c2c1: > 100 µM
- Cc1cc(-c2ccccc2)nc2oc(=O)n(C)c12: > 100 µM
- Cc1ccc(C(=O)NC2CC2)cc1-c1ccc2[nH]ncc2c1: > 25 µM
- CC(SCc1ccccc1)C(=O)O (stereo not drawn): > 100 µM
- N#Cc1cccc(C2C3=C(COC3=O)N(CCO)c3cc4c(cc32)OCO4)c1 (stereo not drawn): > 50 µM
- COc1cc2c(c(OC)c1)[C@H](C)N(Cc1ccccc1)C(C)C2 (stereo partly drawn): > 100 µM
- CNC(=O)c1cncc(/C=C/c2ccccc2Cl)c1: > 25 µM
- CCCCn1c(=O)c(/C=C/C(=O)/C=C/c2cc3ccccc3n(CCCC)c2=O)cc2ccccc21: 2.78 µM
- CSc1ccc(/C=C2\N=C(c3ccccc3)N(c3nc4cc(Cl)c(F)cc4s3)C2=O)cc1: > 100 µM
- CSc1ncc2c(n1)-c1ccccc1OC2NC1CC1 (stereo not drawn): > 100 µM
- CC(=N/NC(=S)N(C)C)/C(=N\NC(=S)N(C)C)c1ccccc1: 10.6 µM
- CO/N=C(\COc1ccc2oc(-c3ccccc3)cc(=O)c2c1)c1ccc(F)cc1: 76.5 µM
- Nc1ccc(/C=C/c2ccc3cccnc3c2)cc1: > 100 µM
- CC1(C)OCC(C2OC(C)(C)OC2[C@H]2O[C@@]3(O)[C@H]4[C@H](C=CC[C@@H]42)[C@@H](OCc2ccccc2)[C@H](OCc2ccccc2)[C@H]3OCc2ccccc2)O1 (stereo partly drawn): > 100 µM
- Cc1cc(S(=O)(=O)N=C2Nc3cccc4cccc(c34)N2)c(S)cc1Cl: > 100 µM
- Cc1ccc(C)c(COCCOCn2cc(N3CCOCC3)c(=O)[nH]c2=O)c1: > 100 µM
- O=C(c1ccc([N+](=O)[O-])cc1)N1CCCC1: > 100 µM
- CSc1nc(=O)c2nc(-c3cccs3)c(-c3cccs3)nc2n1C: > 100 µM
- CCOC(=O)N1CCN(c2c(N)nc(C)[nH]c2=O)CC1: > 100 µM
- CCN(CC)C(=S)N/N=C(/c1ccccc1)c1ccccn1: > 65.9 µM
- COc1ccc([C@]23CCC4(OCC(C)(C)CO4)[C@H]4CON(O[C@H](O[C@@H]5CCCCC5C(C)(C)c5ccccc5)C2)[C@@H]43)cc1OC (stereo partly drawn): > 100 µM
- CS(=O)(=O)Nc1ccc2ccccc2c1: > 100 µM
- C[C@H]1[C@H](C)CC[C@]2(C(=O)OC3OC(CO)C(O)C(O)C3O)CC[C@]3(C)C(=CC[C@@H]4[C@@]5(C)C[C@@H](O)[C@@H]6OC(=O)c7cc(O)c(O)c(O)c7-c7c(cc(O)c(O)c7O)C(=O)OC[C@@]6(CO)[C@@H]5CC[C@]43C)[C@H]12 (stereo partly drawn): > 100 µM
- O=C(O)c1ccc(SSc2ccc(C(=O)O)cn2)nc1: > 100 µM
- COc1cc2c(cc1OCc1ccccc1)NC(=O)[C@@H]1CCCN1C2=O: > 100 µM
- C[As+](C)(c1ccc(Br)c([N+](=O)[O-])c1)c1ccc(Br)c([N+](=O)[O-])c1.O=[N+]([O-])O: > 100 µM
- CCN(CC)CCCCNc1c2ccc(Cl)cc2nc2ccc(OC)cc12: 1.62 µM
- O=C([C@H](O)[C@@H](O)c1cccc(Cl)c1)C12CC3CC(CC(C3)C1)C2: 5.08 µM
- O=c1c2cc([N+](=O)[O-])ccc2oc2nc3n(c(=O)c12)CCCS3: > 100 µM
- CC(C)=C/C(CC(O)(C(F)(F)F)C(F)(F)F)=N\O: > 100 µM
- CCc1nc2c(c(N(C)C)c1C(=O)OC)CCc1ccccc1-2: 40.9 µM
- N#Cc1cccc(N2C(=O)C3C4C=CC(C3C2=O)C2C(=O)N(c3cccc(C#N)c3)C(=O)C42)c1 (stereo not drawn): > 100 µM
- CN1c2ccccc2C2=C(c3ccccc3)CC[C@@H](C(=O)N3C4CC5CC[C@@]4(CS3(=O)=O)C5(C)C)[C@@H]21 (stereo partly drawn): > 100 µM
- CC[C@H](C)[C@H](NC(=O)c1cccn1C)C(=O)N(C)[C@H](C[C@@H](OC(C)=O)c1nc(C(=O)N[C@@H](Cc2ccccc2)C[C@H](C)C(=O)OC)cs1)C(C)C: > 33.3 µM
